meta.source: patent US6200591A

assay_method_text: Absorption of solubilized sildenafil from the nasal cavity of rats (blood concentration after intranasal vs intravenous administration)
Format: in vivo
test_context: rat, in vivo; rats; intranasal; approximately; read-out: Time of peak blood concentration
measurement_kind: Tmax

Problem: Consider the compound shown here: CCCc1nn(C)c2c(=O)[nH]c(-c3cc(S(=O)(=O)N4CCN(C)CC4)ccc3OCC)nc12 [Sildenafil] What is its recorded Tmax?
Solution: 10 to 15 min

* * *

assay_method_text: Solubility of the citrate salt in water
Assay type: physicochemical
Structures can show the parent of a compound that is named as a salt.
measurement_kind: solubility
Quote the value and follow it with the unit of measurement.

Problem: What value of solubility has been reported for the following compound? CCCc1nn(C)c2c(=O)[nH]c(-c3cc(S(=O)(=O)N4CCN(C)CC4)ccc3OCC)nc12 [sildenafil citrate]
Solution: 3500 µg/mL
